target system: Mu-type opioid receptor (Rattus norvegicus)
Sequence (P33535 whole entry): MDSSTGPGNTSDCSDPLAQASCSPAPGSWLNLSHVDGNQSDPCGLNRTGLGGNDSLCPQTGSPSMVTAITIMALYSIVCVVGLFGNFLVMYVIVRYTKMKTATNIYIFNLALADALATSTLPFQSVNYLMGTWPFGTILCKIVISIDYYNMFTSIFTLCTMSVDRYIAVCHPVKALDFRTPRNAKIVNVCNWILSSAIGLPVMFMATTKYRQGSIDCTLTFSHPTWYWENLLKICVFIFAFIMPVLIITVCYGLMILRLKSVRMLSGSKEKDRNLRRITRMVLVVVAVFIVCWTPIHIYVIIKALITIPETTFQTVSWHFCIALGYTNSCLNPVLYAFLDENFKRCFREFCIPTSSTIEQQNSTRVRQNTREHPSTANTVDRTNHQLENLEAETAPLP
experimental details: Displacement of [3H]DAMGO from mu opioid receptor in rat brain membrane homogenate by liquid scintillation counting
Type: cell membranes
measured quantity: Ki (nM)
Numbers only here, please. The scale is nM.

Take a look at these entries with their results.
C[C@@H](c1ccccc1)[C@H](NC(=O)[C@H](Cc1c[nH]c2ccccc12)NC(=O)[C@H]1CCCC[C@H]1NC(=O)[C@@H](N)Cc1ccc(O)cc1)C(N)=O    4.2
Cc1cc(CC(N)C(=O)N[C@@H]2CCCC[C@@H]2C(=O)N[C@@H](Cc2c[nH]c3ccccc23)C(=O)N[C@H](C(N)=O)[C@@H](C)c2ccccc2)cc(C)c1O (some centres undefined)    0.93
Cc1cc(CC(N)C(=O)N[C@@H]2CCCC[C@@H]2C(=O)N[C@@H](Cc2ccccc2)C(=O)N[C@@H](C(N)=O)[C@H](C)c2ccccc2)cc(C)c1O (some centres undefined)    9.7
Cc1cc(CC(N)C(=O)N[C@@H]2CCCC[C@@H]2C(=O)N[C@@H](Cc2ccccc2)C(=O)N[C@H](C(N)=O)[C@@H](C)c2ccccc2)cc(C)c1O (some centres undefined)    0.47
C[C@H](c1ccccc1)[C@@H](NC(=O)[C@H](Cc1c[nH]c2ccccc12)NC(=O)[C@H]1CCCC[C@H]1NC(=O)[C@@H](N)Cc1ccc(O)cc1)C(N)=O    34.6

Prompt: Tell me reported Ki for NC(=O)C(Cc1ccc(F)cc1)NC(=O)[C@H](Cc1c[nH]c2ccccc12)NC(=O)[C@@H]1CCCC[C@@H]1NC(=O)[C@@H](N)Cc1ccc(O)cc1 (some centres undefined) , tested with Mu-type opioid receptor (Rattus norvegicus).
Completion: 143

Prompt: Also check Cc1cc(CC(N)C(=O)N[C@@H]2CCCC[C@@H]2C(=O)N[C@@H](Cc2c[nH]c3ccccc23)C(=O)N[C@@H](C(N)=O)[C@H](C)c2ccccc2)cc(C)c1O (some centres undefined)
Completion: 4.11

Prompt: Also check NC(=O)C(Cc1ccc(F)cc1)NC(=O)[C@H](Cc1c[nH]c2ccccc12)NC(=O)[C@H]1CCCC[C@H]1NC(=O)[C@@H](N)Cc1ccc(O)cc1 (some centres undefined)
Completion: 3.2

Prompt: Same lookup for Cc1cc(CC(N)C(=O)N[C@@H]2CCCC[C@@H]2C(=O)N[C@@H](Cc2c[nH]c3ccccc23)C(=O)NC(Cc2ccc(F)cc2)C(N)=O)cc(C)c1O (some centres undefined) , please.
Completion: 11.1

====

Species on record: Rattus norvegicus
experimental details: Selectivity ratio of Ki for delta opioid receptor in rat brain to mu opioid receptor in rat brain
Type: tissue-based
The following molecules are shown together with reported Ratio Ki values.
Write the number on its own, no unit after it.

Cc1cc(CC(N)C(=O)N[C@@H]2CCCC[C@@H]2C(=O)N[C@@H](Cc2c[nH]c3ccccc23)C(=O)NC(Cc2ccc(F)cc2)C(N)=O)cc(C)c1O (stereo partly drawn)    237
C[C@@H](c1ccccc1)[C@H](NC(=O)[C@H](Cc1c[nH]c2ccccc12)NC(=O)[C@H]1CCCC[C@H]1NC(=O)[C@@H](N)Cc1ccc(O)cc1)C(N)=O    343

Let's switch to this molecule now.
Prompt: Quick one: Ratio Ki of NC(=O)C(Cc1ccc(F)cc1)NC(=O)[C@H](Cc1c[nH]c2ccccc12)NC(=O)[C@H]1CCCC[C@H]1NC(=O)[C@@H](N)Cc1ccc(O)cc1 (stereo partly drawn) ?
Completion: 178
